target_desc: T1, human IL-12 (human, UniProt P29460 23-328; P29459 23-219)
T1 construct: also called Interleukin-12
T1 sequence 1: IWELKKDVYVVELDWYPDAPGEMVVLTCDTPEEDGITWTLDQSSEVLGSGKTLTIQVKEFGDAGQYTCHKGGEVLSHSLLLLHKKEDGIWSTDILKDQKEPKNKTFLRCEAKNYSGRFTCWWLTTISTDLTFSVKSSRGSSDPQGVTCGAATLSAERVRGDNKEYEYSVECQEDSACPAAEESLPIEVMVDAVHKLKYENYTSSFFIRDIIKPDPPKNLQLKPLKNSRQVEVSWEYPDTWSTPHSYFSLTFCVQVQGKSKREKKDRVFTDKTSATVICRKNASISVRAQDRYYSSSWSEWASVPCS
T1 sequence 2: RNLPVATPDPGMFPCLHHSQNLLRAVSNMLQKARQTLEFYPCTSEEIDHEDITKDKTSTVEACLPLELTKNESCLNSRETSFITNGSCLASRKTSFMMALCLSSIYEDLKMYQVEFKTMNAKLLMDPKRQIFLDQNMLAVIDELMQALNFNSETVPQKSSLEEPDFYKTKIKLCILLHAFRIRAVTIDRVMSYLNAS
protocol_notes: SPR (Biacore T200), 37 C, pH 7.4; captured antibody, IL-12 analyte
property_label: pKd
Value format note: pKd is -log10 of concentration (mol/L); just state the number.

Exercise: Quick check: pKd of Anti-IL-12 antibody Ab1 variant L45Q VH/L46Q, Y49A VL (antibody, name in Kabat numbering, V domains shown, Ab1 with VH/VL interface substitutions; Kabat numbering) VH: QVQLVQSGAEVKKPGSSVKVSCKASGGTFSDYYLHWVRQAPGQGQEWMGWIDPENGDTEYAPKFQGRVTITADESTSTAYMELSSLRSEDTAVYYCARNKELRYFDVWGQGTLVTVSS VL: DIVMTQSPLSLPVTPGEPASISCRASQSISINLHWYQQKPGQAPRQLIAFASQSISGVPSRFSGSGSGTDFTLTISSLQPEDFATYYCQQSNSFPLTFGQGTKVEIKR ?
Solution: 8.55

Exercise: Same lookup for Anti-IL-12 antibody Ab1 variant Y91A VH/- (antibody, name in Kabat numbering, V domains shown, Ab1 with VH/VL interface substitutions; Kabat numbering) VH: QVQLVQSGAEVKKPGSSVKVSCKASGGTFSDYYLHWVRQAPGQGLEWMGWIDPENGDTEYAPKFQGRVTITADESTSTAYMELSSLRSEDTAVYACARNKELRYFDVWGQGTLVTVSS VL: DIVMTQSPLSLPVTPGEPASISCRASQSISINLHWYQQKPGQAPRLLIYFASQSISGVPSRFSGSGSGTDFTLTISSLQPEDFATYYCQQSNSFPLTFGQGTKVEIKR , please.
Solution: 9.02

Exercise: Same lookup for Anti-IL-12 antibody Ab1 variant L45Q VH/A43Q, Y49A VL (antibody, name in Kabat numbering, V domains shown, Ab1 with VH/VL interface substitutions; Kabat numbering) VH: QVQLVQSGAEVKKPGSSVKVSCKASGGTFSDYYLHWVRQAPGQGQEWMGWIDPENGDTEYAPKFQGRVTITADESTSTAYMELSSLRSEDTAVYYCARNKELRYFDVWGQGTLVTVSS VL: DIVMTQSPLSLPVTPGEPASISCRASQSISINLHWYQQKPGQQPRLLIAFASQSISGVPSRFSGSGSGTDFTLTISSLQPEDFATYYCQQSNSFPLTFGQGTKVEIKR , please.
Solution: 8.65

Exercise: Same lookup for Anti-IL-12 antibody Ab1 variant L45Q VH/- (antibody, name in Kabat numbering, V domains shown, Ab1 with VH/VL interface substitutions; Kabat numbering) VH: QVQLVQSGAEVKKPGSSVKVSCKASGGTFSDYYLHWVRQAPGQGQEWMGWIDPENGDTEYAPKFQGRVTITADESTSTAYMELSSLRSEDTAVYYCARNKELRYFDVWGQGTLVTVSS VL: DIVMTQSPLSLPVTPGEPASISCRASQSISINLHWYQQKPGQAPRLLIYFASQSISGVPSRFSGSGSGTDFTLTISSLQPEDFATYYCQQSNSFPLTFGQGTKVEIKR , please.
Solution: 8.89

Exercise: Same lookup for Anti-IL-12 antibody Ab1 variant Y91M VH/Y49A, F98L VL (antibody, name in Kabat numbering, V domains shown, Ab1 with VH/VL interface substitutions; Kabat numbering) VH: QVQLVQSGAEVKKPGSSVKVSCKASGGTFSDYYLHWVRQAPGQGLEWMGWIDPENGDTEYAPKFQGRVTITADESTSTAYMELSSLRSEDTAVYMCARNKELRYFDVWGQGTLVTVSS VL: DIVMTQSPLSLPVTPGEPASISCRASQSISINLHWYQQKPGQAPRLLIAFASQSISGVPSRFSGSGSGTDFTLTISSLQPEDFATYYCQQSNSFPLTLGQGTKVEIKR , please.
Solution: 8.97
